The origin of these recorded values is PubChem BioAssay (NCI).

tested on: PC-3 prostate; assay: NCI-60 one-dose screen, 48 h (100 = growth as untreated, 0 = no growth, -100 = all killed); conditions: 10 µM unless noted
Compounds without any hit were thinned out: in the full panel of roughly 83,000, 20% have a hit.
quantity.kind: growth (%)

- compound: "CN1C(=O)N(C)C2NC(N/N=C/c3ccccc3)=NC21 (centres undefined)"
  assayed.target: "PC-3 prostate"
  quantity.kind: "growth"
  unit.abbrev: "%"
  measured.value: 95.6
- compound: "O=C(Nc1cccc(Cl)c1)Oc1c(Br)c(Br)c(Br)c(Br)c1Br"
  assayed.target: "PC-3 prostate"
  quantity.kind: "growth"
  unit.abbrev: "%"
  measured.value: 59.5
- compound: "CCCCCCN(C)Cc1ccc(OCCOc2ccc(CN(C)CCCCCC)cc2)cc1"
  assayed.target: "PC-3 prostate"
  quantity.kind: "growth"
  unit.abbrev: "%"
  measured.value: 23.9
- compound: "Cc1cc(NC(=O)c2cnc(N3CCN(CCOCCOCCOCCOCCC(=O)N[C@H](C(=O)N4C[C@H](O)C[C@H]4C(=O)N[C@@H](C)c4ccc(-c5scnc5C)cc4)C(C)(C)C)CC3)cn2)c2ncccc2c1"
  assayed.target: "PC-3 prostate"
  quantity.kind: "growth"
  unit.abbrev: "%"
  measured.value: 1.95

----------
tested on: SK-MEL-28 melanoma; assay: NCI-60 one-dose screen, 48 h (100 = growth as untreated, 0 = no growth, -100 = all killed); conditions: 10 µM unless noted
This is part of a sample that, as a whole, favours compounds with a hit. Of some 83,000 tested, about 20% had one in any assay.
Decide using growth: a value greater than or equal to 90% is yes, a smaller one is no.

- molecule: "Cc1cc(C)c(C=O)c(C)c1"
  assayed.target: "SK-MEL-28 melanoma"
  label.class: "yes"
- molecule: "COc1ccc(C(=O)c2cc3c(N)c(C(=O)Nc4cccc(Br)c4C)sc3nc2C)cc1"
  assayed.target: "SK-MEL-28 melanoma"
  label.class: "no"
- molecule: "O=C1Nc2c(ccc(Cl)c2Cl)/C1=C/c1ccccn1"
  assayed.target: "SK-MEL-28 melanoma"
  label.class: "yes"
- molecule: "O=C(O)C(/C=C/c1ccco1)=N\\Nc1nc(-c2ccc(Cl)cc2)cs1"
  assayed.target: "SK-MEL-28 melanoma"
  label.class: "no"
- molecule: "CCCCCN1C=C/C(=C\\C(=O)N(C)c2cccc3ccccc23)c2ccccc21"
  assayed.target: "SK-MEL-28 melanoma"
  label.class: "yes"
- molecule: "O=C1NC(=S)NC(=O)C1=Cc1cn(Cc2ccccn2)c2ccccc12"
  assayed.target: "SK-MEL-28 melanoma"
  label.class: "no"
- molecule: "Cc1nn(-c2ccccc2)c(N2CCOCC2)c1/C=N/N=c1\\sc2ccccc2n1C"
  assayed.target: "SK-MEL-28 melanoma"
  label.class: "no"
- molecule: "CC(N)C(=O)NNc1n[nH]c(=S)n1N (stereo unspecified)"
  assayed.target: "SK-MEL-28 melanoma"
  label.class: "yes"
- molecule: "COc1ccc(C(=O)c2cc3c(N)c(C(=O)Nc4ccc(Br)cc4)sc3nc2C)cc1"
  assayed.target: "SK-MEL-28 melanoma"
  label.class: "no"
- molecule: "CSc1nnc2c(=O)n(C)c(=O)n(C)c2n1"
  assayed.target: "SK-MEL-28 melanoma"
  label.class: "yes"

----------
test system: OVCAR-3 ovarian; assay: NCI-60 one-dose screen, 48 h (100 = growth as untreated, 0 = no growth, -100 = all killed); settings: 10 µM unless noted
About 83,000 compounds went through this panel and 20% of them were active in at least one assay; those are over-represented in the sample as a whole.

- compound: "CC(C)(C)OC(=O)N1C/C(=C\\c2ccoc2)C(=O)/C(=C/c2ccoc2)C1"
  assayed.target: "OVCAR-3 ovarian"
  growth (%): 106
- compound: "CCCCCCCCN1C(=O)/C(=c2\\sc3n(c2=O)C2C(NN=3)N(CC)C(=O)N2CC)c2ccccc21 (stereo not given)"
  assayed.target: "OVCAR-3 ovarian"
  growth (%): 98.6
- compound: "CN1C(=O)N(C)C2NC(N/N=C/c3ccccc3)=NC21 (stereo not given)"
  assayed.target: "OVCAR-3 ovarian"
  growth (%): 106
- compound: "COC(=O)Nc1ccc(NC(=O)OC)cc1"
  assayed.target: "OVCAR-3 ovarian"
  growth (%): 111
- compound: "O=C1CCCCCCCCC(O)C(O)CCCC(c2cccs2)O1 (stereo not given)"
  assayed.target: "OVCAR-3 ovarian"
  growth (%): 102
- compound: "CC[C@H](C)[C@@H]1NC(=O)[C@H](Cc2ccc(O)cc2)N(C)C(=O)[C@H](Cc2ccccc2)NC(=O)CN(C)C(=O)[C@@H]2CCCN2C(=O)[C@@H](Cc2ccccc2)N(C)C(=O)[C@H](CC(C)C)NC1=O"
  assayed.target: "OVCAR-3 ovarian"
  growth (%): -10.7
- compound: "CC(=O)NCCCS(=O)(=O)O"
  assayed.target: "OVCAR-3 ovarian"
  growth (%): 108
- compound: "NC(=S)N/N=C/c1ccc(OC(=O)COc2cc(Cl)c(Cl)cc2Cl)cn1"
  assayed.target: "OVCAR-3 ovarian"
  growth (%): 59.2
- compound: "COc1ccc(Nn2c(SCC(=O)Nc3nc(-c4ccc(Cl)cc4)cs3)nc(C)c2C)cc1"
  assayed.target: "OVCAR-3 ovarian"
  growth (%): 60.7
- compound: "C=C(C)[C@H]1CC/C(C)=C/CC[C@]2(C)O[C@H]2CC/C(COC(=O)[C@@H](OC(C)=O)[C@H](NC(=O)c2ccccc2)c2ccccc2)=C\\[C@@H]1O"
  assayed.target: "OVCAR-3 ovarian"
  growth (%): 104
- compound: "CC(=O)N1N=C(c2cccc(Nc3ccncc3)c2)CC1c1ccccc1 (stereo not given)"
  assayed.target: "OVCAR-3 ovarian"
  growth (%): 91.7
- compound: "CCCCCCCCCCN=C(N)N=C(N)N"
  assayed.target: "OVCAR-3 ovarian"
  growth (%): 41.9
- compound: "O=C1OC(=O)C2C1CC=CC2c1ccccc1 (stereo not given)"
  assayed.target: "OVCAR-3 ovarian"
  growth (%): 104
- compound: "O=C1Nc2ccccc2/C1=N/c1nc(-c2ccc(Cl)cc2)cs1"
  assayed.target: "OVCAR-3 ovarian"
  growth (%): 64.9
- compound: "COc1ccc(Cl)cc1NC(=O)c1c(NC(=O)C(F)(F)C(F)(F)F)sc2c1CCCCC2"
  assayed.target: "OVCAR-3 ovarian"
  growth (%): 6.24
- compound: "COc1ccc(/C=C(/c2ccccc2)[N+](=O)[O-])cc1"
  assayed.target: "OVCAR-3 ovarian"
  growth (%): -96.5
- compound: "O=S(=O)(NCCCNc1nccc(-c2c(-c3ccccc3)nc3occn23)n1)c1ccc(Cl)cc1"
  assayed.target: "OVCAR-3 ovarian"
  growth (%): 104
- compound: "COc1ccc(-c2cnc(N)nc2-c2ccc(OC)cc2O)cc1"
  assayed.target: "OVCAR-3 ovarian"
  growth (%): 108
- compound: "CC1(C)CC[C@]2(C(=O)NCC#CCN3CCOCC3)CC[C@]3(C)C(=CC[C@@H]4[C@@]5(C)Cc6c([nH]c7ccccc67)C(C)(C)[C@@H]5CC[C@]43C)[C@@H]2C1"
  assayed.target: "OVCAR-3 ovarian"
  growth (%): 95.1
- compound: "COc1cc(NCCCN(CC(C)C)C2CCCC2)c2ncccc2c1"
  assayed.target: "OVCAR-3 ovarian"
  growth (%): 52.6

----------
Entries annotated with measured growth
test system: MCF7 breast; test: NCI-60 one-dose screen, 48 h (100 = growth as untreated, 0 = no growth, -100 = all killed); conditions: 10 µM unless noted
The panel holds about 83,000 compounds, 20% with a hit somewhere; the sample as a whole holds those more often.

- molecule: "O=C(N/N=C/c1ccc(F)cc1)c1ccccc1Nc1cccc(C(F)(F)F)c1"
  growth / %: 106
- molecule: "COc1ccc(C2=NN(C(C)=O)C(c3cn(Cc4ccc(Cl)cc4)c4ccccc34)C2)cc1 (stereo not given)"
  growth / %: 84.5
- molecule: "COc1cccc2cc(-c3cc4ccccc4[nH]3)/c(=N/C(=S)Nc3ccc(C)cc3)oc12"
  growth / %: 74
- molecule: "Cn1ncc2c(Nc3ccccc3Cl)nc(Cl)nc21"
  growth / %: 104
- molecule: "COc1ccc(C(=O)/C=C/c2c(OC)cc(OC)cc2OC)c(OC)c1"
  growth / %: 21.4

----------
system: ACHN renal; assay: NCI-60 one-dose screen, 48 h (100 = growth as untreated, 0 = no growth, -100 = all killed); details: 10 µM unless noted
This is part of a sample that, as a whole, favours compounds with a hit. Of some 83,000 tested, about 20% had one in any assay. The source made the active and inactive calls. The calls were made as follows: active = growth percent below 10; inactive = the rest.
// growth lookup, one value per entry

- molecule: "Nc1nnc(C(=O)c2cnc3n(c2=O)CCCCC3)s1"
  growth: "101% (inactive)"
- molecule: "COc1ccc(C2CC(c3cccc(Nc4ccncc4)c3)=NN2c2ccccc2)cc1 (configuration not stated)"
  growth: "69.2% (inactive)"
- molecule: "Cc1c(C(=O)NO)sc2ncnc(Nc3ccc(NC(=S)Nc4ccccc4)cc3)c12"
  growth: "105% (inactive)"
- molecule: "CC(=O)NCCCS(=O)(=O)O"
  growth: "98.2% (inactive)"
- molecule: "N/C(=N\\N=C\\c1cc2ccccc2[nH]1)N/N=C/c1cc2ccccc2[nH]1"
  growth: "109% (inactive)"
- molecule: "O=C(Nc1ccc(Nc2ncccn2)cc1)NC1C=c2ccccc2=CC1 (configuration not stated)"
  growth: "105% (inactive)"
- molecule: "COc1ccc(/C=C/c2n[nH]c3ccc(N4CCOC4=O)cc23)cc1"
  growth: "6.86% (active)"
- molecule: "Fc1ccc(C2CC(c3cccc(Nc4ccncc4)c3)=NN2c2ccccc2)cc1 (configuration not stated)"
  growth: "75.3% (inactive)"
- molecule: "COc1cc(-c2cc(=O)oc3cc(O)ccc23)cc(OC)c1OC"
  growth: "89.3% (inactive)"
- molecule: "CS(=O)(=O)Nc1cc(-c2ccc3ncnc(Nc4ccc5[nH]ncc5c4)c3c2)cnc1Cl"
  growth: "83.8% (inactive)"
- molecule: "COc1ccc(C(=O)/C=C/c2c(OC)cc(OC)cc2OC)c(OC)c1"
  growth: "26.9% (inactive)"
- molecule: "COc1cc(NCCN(CC(C)C)C2CCCC2)c2ncccc2c1"
  growth: "82.2% (inactive)"
- molecule: "Nc1c(C(=O)Nc2ccc(Cl)cc2)cc(-c2nc3ccccc3s2)c(=O)n1NS(=O)(=O)c1ccc(Cl)cc1"
  growth: "103% (inactive)"
- molecule: "O=C(N/N=C/c1ccncc1)c1ccccc1Nc1cccc(C(F)(F)F)c1"
  growth: "90.5% (inactive)"
- molecule: "CC[N+](CC)(CCCC(C)[N+]1(Cc2ccccc2)C(C)=CC=C1C)Cc1ccccc1 (configuration not stated)"
  growth: "100% (inactive)"
- molecule: "CN1C(=O)N(C)[C@H]2NC(NN)=N[C@H]21"
  growth: "104% (inactive)"
- molecule: "CC(=O)c1cccc(NS(=O)(=O)c2cccc(C(=O)Nc3ccc(Br)cc3)c2)c1"
  growth: "61.5% [25 µM] (inactive)"
- molecule: "Nc1ncc(C#Cc2cncc(NC(=O)c3cccc(C(F)(F)F)c3)c2)c2cccnc12"
  growth: "55.1% (inactive)"
- molecule: "O=C(Nc1nc2ccc(C(=O)N3CCN(c4ccc(Cl)c(Cl)c4)CC3)cc2s1)c1ccc(NCCc2ccccc2)c([N+](=O)[O-])c1"
  growth: "101% (inactive)"
- molecule: "COc1cnccc1-c1nc2ccc3[nH]ncc3c2c2c1CCCC2"
  growth: "37.6% (inactive)"
- molecule: "O=C(O)CCCCCCCCCCCCCCC(=O)O"
  growth: "107% (inactive)"
- molecule: "CCCCCCc1nc2nc(Cl)c(Cl)nc2[nH]1"
  growth: "67.4% (inactive)"
